system: A498; assay: NCI tumour cell line growth inhibition, 48 h
Calls of active or inactive are those of the source. Cut-off read from the data, not from the text of the source: active = GI50 up to about 1.1 µM and inactive = higher.

COMPOUND: O=c1oc2ccccc2cc1-c1nc2ccccc2s1
GI50: 13.4 µM (inactive)
--
COMPOUND: O=C1Nc2ccccc2/C1=c1\[nH]c(=O)/c(=C\c2ccc(OCc3ccccc3)cn2)[nH]c1=O
GI50: 27.3 µM (inactive)
--
COMPOUND: COc1ccc2c3c(c(C(=O)O)oc13)C(CCC(=O)O)CC2 (stereo not given)
GI50: > 100 µM (inactive)
--
COMPOUND: CC(C)C(Sc1nc(-c2ccccc2)c(-c2ccccc2)[nH]1)C(=O)N/N=C/c1ccc([N+](=O)[O-])cc1 (stereo not given)
GI50: 20.5 µM (inactive)
--
COMPOUND: COc1ccc(C2OC(=O)c3ccc4ccccc4c32)c(C)c1 (stereo not given)
GI50: 7.41 µM (inactive)

====

Heads up, these molecules all have GI50 values measured for HCT-15.
ENDPOINT_NAME: GI50 (µM)

MOLECULE: CN(Cc1cnc2nc(N)nc(N)c2n1)c1ccc(C(=O)NC(CO)CCCO)cc1 (stereo not drawn)
ENDPOINT_NAME: GI50
LIMIT_SIGN: >
MEAS_VALUE: 100

MOLECULE: O=C1C[C@H]2[C@H](c3ccc(Br)cc3)[C@H]3C(=O)c4ccccc4NC(=O)[C@@H]3[C@@]2(O)c2ccccc2N1
ENDPOINT_NAME: GI50
LIMIT_SIGN: =
MEAS_VALUE: 27.9

MOLECULE: CCC(=O)NCC1CCCN2CCCCC12 (stereo not drawn)
ENDPOINT_NAME: GI50
LIMIT_SIGN: >
MEAS_VALUE: 100

MOLECULE: Cc1cc(C(=O)CBr)c(CN2C(=O)c3ccccc3C2=O)c(=O)n1C
ENDPOINT_NAME: GI50
LIMIT_SIGN: =
MEAS_VALUE: 12.6

MOLECULE: CC(C)C(Sc1nc(-c2ccccc2)c(-c2ccccc2)[nH]1)C(=O)N/N=C/c1ccc([N+](=O)[O-])cc1 (stereo not drawn)
ENDPOINT_NAME: GI50
LIMIT_SIGN: =
MEAS_VALUE: 12.5

MOLECULE: CN(C)C1(N(C)C)Oc2c(c(=O)n(C)c(=O)n2C)C(c2ccccc2Br)C1(F)F (stereo not drawn)
ENDPOINT_NAME: GI50
LIMIT_SIGN: >
MEAS_VALUE: 100

MOLECULE: COC(=O)C1=C(OC(=O)/C(=C/c2ccc(Cl)cc2Cl)c2ccc(Cl)cc2Cl)C(C(=O)OC)[C@@]2(O)[C@@H](C(=O)OC)[C@H](C)C[C@@H]1[C@@H]2C(=O)OC (stereo partly drawn)
ENDPOINT_NAME: GI50
LIMIT_SIGN: >
MEAS_VALUE: 100

MOLECULE: Oc1cc(-c2cccs2)nc2cc3c(cc12)OCO3
ENDPOINT_NAME: GI50
LIMIT_SIGN: =
MEAS_VALUE: 4.23

====

We begin with a simple list: items and their reported GI50.
tested on: KM12; test: NCI tumour cell line growth inhibition, 48 h
The source made the active and inactive calls. No stated cut-off is given here; in the data, active = GI50 up to about 1.1 µM and inactive = higher.

COMPOUND: O=c1[nH]n(Cc2ccccc2CCl)c2ccc([N+](=O)[O-])cc12
GI50: 49.5 µM (inactive)

COMPOUND: C[C@]12CCC[C@H](Cl)C1(O)C[C@H](C(=O)O)CC2 (stereo not given in full)
GI50: > 100 µM (inactive)

COMPOUND: COc1cnc2cc(C(=O)O)c3ccccc3c2c1
GI50: > 100 µM (inactive)

COMPOUND: N#CC(C#N)=CNCCN1CCN(C=C(C#N)C#N)CC1
GI50: > 100 µM (inactive)

COMPOUND: O=C(CSc1nnc(SCC(=O)NN=C2CCCCC2)s1)NN=C1CCCCC1
GI50: > 100 µM (inactive)

COMPOUND: Cn1nc(-c2ccccc2)c2c(/C=C/c3ccccc3)onc2c1=O
GI50: > 100 µM (inactive)

COMPOUND: COc1c(OC(C)=O)cc2c(OC(C)=O)c1CC(C)CC(OC)C(O)C(C)/C=C(\C)C(OC(N)=O)C(OC)/C=C\C=C(/C)C(=O)N2 (stereo not given)
GI50: > 100 µM (inactive)

COMPOUND: O=C(O)/C(Cl)=C(\Cl)C(=O)Nc1ccccc1
GI50: > 100 µM (inactive)

COMPOUND: Oc1cc(-c2cccs2)nc2cc3c(cc12)OCO3
GI50: 2.45 µM (inactive)

COMPOUND: COc1cc([C@@H]2c3cc4c(cc3[C@@H](NCc3ccc(C#N)cc3)C3COC(=O)[C@@H]32)OCO4)cc(OC)c1O (stereo not given in full)
GI50: 1.4 µM (inactive)

COMPOUND: Cn1c2ccccc2c2c3c(=O)[nH][nH]c(=O)c3c3c4ccccc4n(C)c3c21
GI50: 30.1 µM (inactive)

COMPOUND: CS(=O)(=O)N1CC(CCl)c2ccc(NO)cc21 (stereo not given)
GI50: 14.6 µM (inactive)

COMPOUND: Cc1cccc(C)c1N1C(=O)C(=O)C(c2nc3ccccc3s2)/C(=N/c2cccc3c(=O)[nH][nH]c(=O)c23)C1=O (stereo not given)
GI50: > 100 µM (inactive)

COMPOUND: COc1cc(C(=O)N2CCc3c([nH]c4c([N+](=O)[O-])c(OC)ccc34)C2C)cc(OC)c1OC (stereo not given)
GI50: > 100 µM (inactive)

COMPOUND: COc1ccc(/C=c2\sc3n(c2=O)C(N)=C(C#N)C(c2ccc(OC)cc2)C=3c2nc3ccccc3[nH]2)cc1 (stereo not given)
GI50: 14.2 µM (inactive)

COMPOUND: O=C1C[C@H](c2ccccc2)C2(C(=O)c3ccccc3C2=O)[C@H](c2ccccc2)C1
GI50: > 100 µM (inactive)

COMPOUND: Fc1ccc(C2SCc3nc4ccccc4n32)cc1 (stereo not given)
GI50: 37.2 µM (inactive)

COMPOUND: OC1CC2CCCN(CCc3c1[nH]c1ccccc31)C2 (stereo not given)
GI50: > 100 µM (inactive)

COMPOUND: CC(=O)c1c(C)cn(S(=O)(=O)NC(=O)Nc2nncs2)c1C
GI50: > 100 µM (inactive)

COMPOUND: NCC(=O)OCN1C(=O)C2C3C=CC(C2C1=O)C1C2C(=O)N(COC(=O)CN)C(=O)C2C31 (stereo not given)
GI50: 22.2 µM (inactive)

Each recorded value in this set is attributed to ChEMBL document CHEMBL1201862.
